System: JAK2(JH1domain-catalytic);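 further: KINOMEscan kinase panel screen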
TEST SETTINGS: concentration: 1 μM, replicates: in singlicate; n = 1
Parameter %Inh: see the listing below.
Give just the number in %; leave the unit off.

Here are 5 compounds together with their reported answers.
CHEMICAL STRUCTURE: Cc1occc1-c1ncc(OC[C@@H](N)Cc2c[nH]c3ccccc23)cc1-c1ccc2[nH]nc(C)c2c1.O=C(O)C(F)(F)F
ENDPOINT NAME: %Inh
MEASUREMENT UNIT: %
OBS VALUE: 5

CHEMICAL STRUCTURE: COC(=O)Nc1nc2ccc(Oc3ccc(NC(=O)Nc4cc(C(F)(F)F)ccc4F)cc3)cc2n1C.Cl
ENDPOINT NAME: %Inh
MEASUREMENT UNIT: %
OBS VALUE: 22

CHEMICAL STRUCTURE: C[C@@H](Oc1cc(-n2cnc3cc(-c4ccnc(NCCS(C)(=O)=O)c4)ccc32)sc1C(N)=O)c1ccccc1Cl
ENDPOINT NAME: %Inh
MEASUREMENT UNIT: %
OBS VALUE: 50

CHEMICAL STRUCTURE: Clc1ccc(-c2nn3ncccc3c2-c2ccnc(Nc3ccc4c(c3)OCCO4)n2)cc1
ENDPOINT NAME: %Inh
MEASUREMENT UNIT: %
OBS VALUE: 2

CHEMICAL STRUCTURE: c1ccc(-c2n[nH]cc2Nc2ccnc3ccccc23)nc1
ENDPOINT NAME: %Inh
MEASUREMENT UNIT: %
OBS VALUE: 94.2

In: Consider the compound Cl.c1ccc(-c2ccc3c(Nc4ccc5[nH]ncc5c4)ccnc3c2)nc1 and give its recorded %Inh.
Out: 36

In: Consider the compound CC(C)(C)c1ccc2nccc(Nc3cccc(O)c3)c2c1 and give its recorded %Inh.
Out: 36
